tested.target: Apoptosis regulator Bcl-2 (Homo sapiens, UniProt P10415)
Sequence (P10415 whole entry): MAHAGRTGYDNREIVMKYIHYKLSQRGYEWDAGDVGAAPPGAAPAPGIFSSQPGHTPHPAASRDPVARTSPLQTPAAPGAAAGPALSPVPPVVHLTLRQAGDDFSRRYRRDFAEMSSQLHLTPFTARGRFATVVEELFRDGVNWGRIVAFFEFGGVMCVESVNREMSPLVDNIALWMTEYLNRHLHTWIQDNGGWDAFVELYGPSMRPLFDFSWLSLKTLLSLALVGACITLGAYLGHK
protocol.notes: Inhibition of Bcl-2 (unknown origin) by fluorescence polarization assay
measured.endpoint: pKi
# pKi is unitless: minus log10 of the molar concentration; print number only

The compound O=C(NS(=O)(=O)c1ccc(NC2CCOCC2)c([N+](=O)[O-])c1)c1ccc(N2CCN(CC3=C(c4ccc(Cl)cc4)COCC3)CC2)cc1 showed pKi equal to 7.23

====

tested.target: Apoptosis regulator Bcl-2 (Homo sapiens, UniProt P10415)
protocol.notes: Inhibition of wild-type BCL-2 (unknown origin) expressed in Escherichia coli BL21 cells using biotinylated BIMBH3 or BAXBH3 peptide by surface plasmon resonance assay
measured.endpoint: pKi
Scale explanation: pKi corresponds to minus log10 of a concentration expressed in moles per litre.

For NC[C@@H]1Cc2ccccc2CN1C(=O)c1cc2c(cc1-c1cc(C(=O)N(c3ccccc3)c3ccc(O)cc3)c3n1CCCC3)OCO2 the compound record lists pKi as 9.44

====

tested.target: Induced myeloid leukemia cell differentiation protein Mcl-1 (Homo sapiens, UniProt Q07820)
Sequence (Q07820 whole entry, the tested form may be a part): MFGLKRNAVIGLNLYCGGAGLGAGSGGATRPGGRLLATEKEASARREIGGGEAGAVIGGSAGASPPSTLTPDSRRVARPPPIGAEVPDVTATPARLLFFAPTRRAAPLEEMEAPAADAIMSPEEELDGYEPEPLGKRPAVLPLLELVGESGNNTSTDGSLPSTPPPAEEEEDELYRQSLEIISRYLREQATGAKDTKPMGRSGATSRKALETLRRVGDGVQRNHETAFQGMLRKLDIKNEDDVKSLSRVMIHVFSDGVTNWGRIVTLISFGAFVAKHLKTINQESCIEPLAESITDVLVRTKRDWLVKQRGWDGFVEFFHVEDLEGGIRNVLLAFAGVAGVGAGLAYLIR
protocol.notes: Inhibition of TAMRA-labeled BIM BH3 peptide binding to human Mcl1 (171 to 327 residues) incubated for 120 mins by fluorescence polarization
measured.endpoint: pIC50
Scale explanation: pIC50 corresponds to minus log10 of a concentration expressed in moles per litre.

Documented pIC50 of O=C1NS(=O)(=O)CCOCCCCCCN2C[C@@]3(CCCc4cc(Cl)ccc43)COc3ccc1cc32 : 8.00
